# test protocol: Degradation of prodrug in rat plasma (release of dexmedetomidine, HPLC)
# Type: in vitro ADME
# measurement parameters: 37° C., 10 min
Where a name gives a salt, the structure may show the parent alone.
experimental readout: Degradation rate of prodrug %
Field note: include the unit after the figure.

Some entries whose results are on file:
{"molecule": "Cc1cccc([C@H](C)c2cn(COC(=O)OC(C)C)cn2)c1C [Compound 7-HCl]", "Degradation rate of prodrug %": "100%"}
{"molecule": "CCOC(=O)COC(=O)OCn1cnc([C@@H](C)c2cccc(C)c2C)c1 [Compound 24-HCl]", "Degradation rate of prodrug %": "33%"}
{"molecule": "COC(=O)OCn1cnc([C@@H](C)c2cccc(C)c2C)c1 [Compound 13-HCl]", "Degradation rate of prodrug %": "96%"}

Now consider a different molecule.
Reported Degradation rate of prodrug % for CCC(=O)OC(C)n1cnc([C@@H](C)c2cccc(C)c2C)c1 (stereo partly shown) [Compound 18-HCl] : what is it?
59%

----------
# Test system: Male SD rats
# test protocol: Blood pressure change after tail vein injection (mean arterial pressure)
# measurement parameters: dosage 2× ED50, injection within 15 seconds, 60 min recording, rats under isoflurane
Where a name gives a salt, the structure may show the parent alone.
Assignment: determine reported −Δ % (The maximum decrease rate of blood pressure) for the given compounds.
One number for each entry, in %.

{"compound": "Cc1cccc([C@H](C)c2cn(COC(=O)C3CC3)cn2)c1C [Compound 15-HCl]", "quantity unit": "%", "readout value": 36}

Provide the reported −Δ % (The maximum decrease rate of blood pressure) of each entry below, same order.
1. Cc1cccc([C@H](C)c2cn(COC(=O)OC3CCC3)cn2)c1C [Compound 14-HCl]
2. COC(=O)OCn1cnc([C@@H](C)c2cccc(C)c2C)c1 [Compound 13-HCl]
3. CCCOC(=O)n1cnc([C@@H](C)c2cccc(C)c2C)c1 [Compound 11-HCl]
4. CCOC(=O)OCn1cnc([C@@H](C)c2cccc(C)c2C)c1 [Compound 6-HCl]
5. Cc1cccc([C@H](C)c2cn(COP(=O)(O)O)cn2)c1C

36
39
41
36
36

Provide the reported −Δ % (The maximum decrease rate of blood pressure) of each entry below, same order.
1. CCC(=O)OC(C)n1cnc([C@@H](C)c2cccc(C)c2C)c1 (some centres unmarked) [Compound 18-HCl]
2. Cc1cccc([C@H](C)c2cn(COC(=O)C(C)(C)C)cn2)c1C [Compound 3-HCl]
3. Cc1cccc([C@H](C)c2cn(COC(=O)OC3CC3)cn2)c1C [Compound 22-HCl]
4. CCCC(=O)OCn1cnc([C@@H](C)c2cccc(C)c2C)c1 [Compound 8-HCl]

1. 34
2. 41
3. 39
4. 31

Provide the reported −Δ % (The maximum decrease rate of blood pressure) of each entry below, same order.
1. Cc1cccc([C@H](C)c2cn(C(=O)OCC(C)C)cn2)c1C [Compound 4-HCl]
2. Cc1cccc([C@H](C)c2cn(COC(=O)OC(C)C)cn2)c1C [Compound 7-HCl]
3. CC(=O)OC(C)n1cnc([C@@H](C)c2cccc(C)c2C)c1 (some centres unmarked) [Compound 17-HCl]
4. Cc1cccc([C@H](C)c2cn(COC(=O)C(C)C)cn2)c1C [Compound 2-HCl]
5. CC(=O)OCn1cnc([C@@H](C)c2cccc(C)c2C)c1 [Compound 1-HCl]
6. COC(=O)CCC(=O)OCn1cnc([C@@H](C)c2cccc(C)c2C)c1 [Compound 25-HCl]
7. COC(=O)COC(=O)OCn1cnc([C@@H](C)c2cccc(C)c2C)c1 [Compound 23-HCl]
8. CCOC(=O)CCC(=O)OCn1cnc([C@@H](C)c2cccc(C)c2C)c1 [Compound 27-HCl]

1: 38; 2: 37; 3: 35; 4: 32; 5: 43; 6: 37; 7: 35; 8: 41

Provide the reported −Δ % (The maximum decrease rate of blood pressure) of each entry below, same order.
1. Cc1cccc([C@H](C)c2cn(C(=O)OC(C)C)cn2)c1C [Compound 5-HCl]
2. CCC(=O)OCn1cnc([C@@H](C)c2cccc(C)c2C)c1 [Compound 10-HCl]

1. 35
2. 40

----------
# test protocol: Degradation of prodrug in rat plasma (release of dexmedetomidine, HPLC)
# Type: in vitro ADME
# measurement parameters: 37° C., 0.5 min
Where a name gives a salt, the structure may show the parent alone.
experimental readout: Degradation rate of prodrug % (%)
Numbers only, in %.

{"molecule": "Cc1cccc([C@H](C)c2cn(COC(=O)OC(C)C)cn2)c1C [Compound 7-HCl]", "experimental readout": "Degradation rate of prodrug %", "quantity unit": "%", "readout value": 22}
{"molecule": "CCOC(=O)CCC(=O)OCn1cnc([C@@H](C)c2cccc(C)c2C)c1 [Compound 27-HCl]", "experimental readout": "Degradation rate of prodrug %", "quantity unit": "%", "readout value": 52}
{"molecule": "COC(=O)CCC(=O)OCn1cnc([C@@H](C)c2cccc(C)c2C)c1 [Compound 25-HCl]", "experimental readout": "Degradation rate of prodrug %", "quantity unit": "%", "readout value": 51}
{"molecule": "Cc1cccc([C@H](C)c2cn(COC(=O)OC3CC3)cn2)c1C [Compound 22-HCl]", "experimental readout": "Degradation rate of prodrug %", "quantity unit": "%", "readout value": 91}
{"molecule": "CCCOC(=O)n1cnc([C@@H](C)c2cccc(C)c2C)c1 [Compound 11-HCl]", "experimental readout": "Degradation rate of prodrug %", "quantity unit": "%", "readout value": 26}

Provide the reported Degradation rate of prodrug % of each entry below, same order.
1. COC(=O)COC(=O)OCn1cnc([C@@H](C)c2cccc(C)c2C)c1 [Compound 23-HCl]
2. Cc1cccc([C@H](C)c2cn(COC(=O)C(C)(C)C)cn2)c1C [Compound 3-HCl]
3. CCOC(=O)COC(=O)OCn1cnc([C@@H](C)c2cccc(C)c2C)c1 [Compound 24-HCl]
4. Cc1cccc([C@H](C)c2cn(C(=O)OC(C)C)cn2)c1C [Compound 5-HCl]
5. CC(=O)OCn1cnc([C@@H](C)c2cccc(C)c2C)c1 [Compound 1-HCl]
6. COC(=O)OCn1cnc([C@@H](C)c2cccc(C)c2C)c1 [Compound 13-HCl]
7. CC(=O)OC(C)n1cnc([C@@H](C)c2cccc(C)c2C)c1 (stereo partly drawn) [Compound 17-HCl]
8. Cc1cccc([C@H](C)c2cn(COC(=O)C(C)C)cn2)c1C [Compound 2-HCl]

23
36
18
36
33
16
12
35

Provide the reported Degradation rate of prodrug % of each entry below, same order.
1. Cc1cccc([C@H](C)c2cn(COC(=O)C3CC3)cn2)c1C [Compound 15-HCl]
2. CCC(=O)OC(C)n1cnc([C@@H](C)c2cccc(C)c2C)c1 (stereo partly drawn) [Compound 18-HCl]
3. Cc1cccc([C@H](C)c2cn(C(=O)OCC(C)C)cn2)c1C [Compound 4-HCl]
4. Cc1cccc([C@H](C)c2cn(COC(=O)OC3CCC3)cn2)c1C [Compound 14-HCl]
5. CCC(=O)OCn1cnc([C@@H](C)c2cccc(C)c2C)c1 [Compound 10-HCl]

1: 18; 2: 17; 3: 31; 4: 53; 5: 57

----------
Assignment: determine reported Degradation rate of prodrug % for the given compounds.
# test protocol: Degradation of prodrug in rat plasma (release of dexmedetomidine, HPLC)
# Type: in vitro ADME
# measurement parameters: 37° C., 20 min
# Protocol: The test prodrug was formulated as a 1 mg/mL of physiological saline solution, and then 100 μL of the prodrug solution was added to 900 μL of rat plasma. The test solution was vortexed for 30 s before incubation at 37° C. […] 100 μL of the supernatant was injected for detection by HPLC, and the concentration of dexmedetomidine was determined by an internal standard method. The degradation rate of the prodrug was calculated based on the concentration of dexmedetomidine. […]
Counter-ions that a name gives are not always drawn.
One number for each entry, in %.

Provide the reported Degradation rate of prodrug % of each entry below, same order.
1. Cc1cccc([C@H](C)c2cn(COP(=O)(O)O)cn2)c1C
2. CCCOC(=O)n1cnc([C@@H](C)c2cccc(C)c2C)c1 [Compound 11-HCl]
3. CCC(=O)OC(C)n1cnc([C@@H](C)c2cccc(C)c2C)c1 (some centres unmarked) [Compound 18-HCl]
4. COC(=O)CCC(=O)OCn1cnc([C@@H](C)c2cccc(C)c2C)c1 [Compound 25-HCl]
5. CC(=O)OC(C)n1cnc([C@@H](C)c2cccc(C)c2C)c1 (some centres unmarked) [Compound 17-HCl]
6. CCOC(=O)CCC(=O)OCn1cnc([C@@H](C)c2cccc(C)c2C)c1 [Compound 27-HCl]
7. CCOC(=O)COC(=O)OCn1cnc([C@@H](C)c2cccc(C)c2C)c1 [Compound 24-HCl]
8. COC(=O)COC(=O)OCn1cnc([C@@H](C)c2cccc(C)c2C)c1 [Compound 23-HCl]

38
100
69
72
53
100
37
29

These measurements were taken from patent US20240217936A1.
